Recorded Substrate use, 590 nm absorbance normalized to zero hour, 5 hr values for a group of molecules are listed next.
- Test system: NHBE cells
- protocol.text: Biolog metabolic array: substrate use by NHBE cells with or without CA09 infection
- Assay type: cell-based, human
- reported.conditions: Control (uninfected) NHBE cells, Biolog PMM2, 5 hr
property.name: Substrate use, 590 nm absorbance normalized to zero hour, 5 hr

- molecule: "CC(=O)C(C)O (stereo not drawn) [3-Hydroxy 2-Butanone]"
  val: 2.01
- molecule: "CC(=O)N[C@@H]1C(O)O[C@H](CO)[C@@H](O)[C@@H]1O (stereo partly drawn)"
  val: 0.68
- molecule: "OCC(O)CO"
  val: 1.27
- molecule: "O=C(O)CCC(=O)C(=O)O"
  val: 1.52
- molecule: "OC[C@@H](O)[C@@H](O)[C@H](O)[C@H](O)CO"
  val: 0.91
- molecule: "O=C(O)CCCO [g-Hydroxy-Butyric Acid]"
  val: 1.71
- molecule: "O=c1[nH]cnc2c1ncn2[C@@H]1O[C@H](CO)[C@@H](O)[C@H]1O"
  val: 4.02
- molecule: "O=C[C@H](O)[C@@H](O)[C@@H](O)CO"
  val: 3.33
- molecule: "OC[C@@H](O)[C@@H](O)[C@@H](O)CO"
  val: 1.16
- molecule: "OC[C@@]12OC[C@@H](O1)[C@@H](O)[C@@H](O)[C@@H]2O"
  val: 0.61
- molecule: "OC[C@H]1O[C@@H](O[C@@H]2[C@@H](CO)OC(O)(CO)[C@H]2O)[C@H](O)[C@@H](O)[C@H]1O (mixture of isomers)"
  val: 3.40
- molecule: "O=C(O)CCC(=O)O"
  val: 1.04
- molecule: "O=P(O)(O)OC[C@H](O)CO (racemic) [D,L-a-Glycerol Phosphate]"
  val: 0.70
- molecule: "O=C(O)C(O)C(O)C(=O)O (stereo not drawn)"
  val: 2.42
- molecule: "Nc1ncnc2c1ncn2[C@@H]1O[C@H](CO)[C@@H](O)[C@H]1O"
  val: 2.21
- molecule: "OC[C@@H]1OC(O)[C@@H](O)[C@H](O)[C@H]1O (stereo partly drawn)"
  val: 3.52
- molecule: "O=C[C@H](O)[C@@H](O)[C@H](O)[C@H](O)C(=O)O"
  val: 1.57
- molecule: "CC[C@H](O)C(=O)O (racemic) [D,L-a-Hydroxy-Butyric Acid]"
  val: 1.18
